molecular target: AgNbp2; test: SPOT peptide array binding signal intensity (averaged, normalized) (arbitrary units (background-subtracted, floor 0; scale differs between SH3 domains)); higher = stronger binding of the SH3 domain to the peptide
Lab note: compare SPOT peptide array binding signal intensity against 80. Equal or greater, write T. Smaller, write F.

Use these answered entries as a reference point.
{"Binder": "EQEEIAPSLPSRNSI", "Class label": "F"}
{"Binder": "LFMKGTPEFPKSGFS", "Class label": "T"}
{"Binder": "FVLRYYILIPHEQWD", "Class label": "T"}
{"Binder": "KLSRGRYGLPLSSRP", "Class label": "F"}

Task item: Is SPOT peptide array binding signal intensity at least 80? Consider TYNRTAFQIPGDQSI
Reply: F

Task item: Thanks! And SNRRPVPRRPSQPLN ?
Reply: T

Task item: Next: MFLISPPASPPPEFD
Reply: F
